This collection of values is drawn from the supplement of paper PMC10567573.

B1: EPB41L3 (parent)
chain: SELGDYDPDECGSDYISEFRFAPN

Variants of: B1
Test: protein stability index of a GFP-peptide fusion (GPS, HEK-293T) (PSI 1-6); higher = more stable;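 also: lentivirally expressed fusions sorted by FACS into six bins by GFP to DsRed ratio, PSI derived from sequencing read proportions per bin multiplied by bin number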
Details: c terminus: a fixed tail appended
Where protein stability index equals or exceeds 2, the correct label is yes; where it does not, the label is no.

Given the entry `D14I` , answer whether its protein stability index meets or surpasses 2.
yes

Given the entry `E2T` , answer whether its protein stability index meets or surpasses 2.
no

Given the entry `S1R` , answer whether its protein stability index meets or surpasses 2.
no

Given the entry `G4P` , answer whether its protein stability index meets or surpasses 2.
yes

Given the entry `S1H` , answer whether its protein stability index meets or surpasses 2.
no

Given the entry `S13H` , answer whether its protein stability index meets or surpasses 2.
yes

Given the entry `S17D` , answer whether its protein stability index meets or surpasses 2.
yes

Given the entry `D14L` , answer whether its protein stability index meets or surpasses 2.
yes

Given the entry `C11P` , answer whether its protein stability index meets or surpasses 2.
no

Given the entry `P23K` , answer whether its protein stability index meets or surpasses 2.
yes

Given the entry `D7A` , answer whether its protein stability index meets or surpasses 2.
no

Given the entry `P8R` , answer whether its protein stability index meets or surpasses 2.
yes

Given the entry `E10M` , answer whether its protein stability index meets or surpasses 2.
no

Given the entry `D9H` , answer whether its protein stability index meets or surpasses 2.
no

Given the entry `I16V` , answer whether its protein stability index meets or surpasses 2.
yes

Given the entry `S17T` , answer whether its protein stability index meets or surpasses 2.
no

Given the entry `G4C` , answer whether its protein stability index meets or surpasses 2.
no

Given the entry `F21C` , answer whether its protein stability index meets or surpasses 2.
yes

Given the entry `A22L` , answer whether its protein stability index meets or surpasses 2.
yes

Given the entry `G12P` , answer whether its protein stability index meets or surpasses 2.
yes

Given the entry `N24G` , answer whether its protein stability index meets or surpasses 2.
yes

Given the entry `F19R` , answer whether its protein stability index meets or surpasses 2.
yes

Given the entry `S17G` , answer whether its protein stability index meets or surpasses 2.
yes

Given the entry `R20N` , answer whether its protein stability index meets or surpasses 2.
yes

Given the entry `N24Y` , answer whether its protein stability index meets or surpasses 2.
yes

Given the entry `S1M` , answer whether its protein stability index meets or surpasses 2.
yes

Given the entry `E2H` , answer whether its protein stability index meets or surpasses 2.
no

Given the entry `N24M` , answer whether its protein stability index meets or surpasses 2.
no

Given the entry `E10I` , answer whether its protein stability index meets or surpasses 2.
no

Given the entry `L3P` , answer whether its protein stability index meets or surpasses 2.
yes

Given the entry `N24S` , answer whether its protein stability index meets or surpasses 2.
no

Given the entry `Y15H` , answer whether its protein stability index meets or surpasses 2.
yes

Given the entry `G4H` , answer whether its protein stability index meets or surpasses 2.
no

Given the entry `R20A` , answer whether its protein stability index meets or surpasses 2.
yes

Given the entry `F19K` , answer whether its protein stability index meets or surpasses 2.
yes

Given the entry `N24C` , answer whether its protein stability index meets or surpasses 2.
no

Given the entry `E18D` , answer whether its protein stability index meets or surpasses 2.
no

Given the entry `G4F` , answer whether its protein stability index meets or surpasses 2.
no

Given the entry `P23D` , answer whether its protein stability index meets or surpasses 2.
yes

Given the entry `D5G` , answer whether its protein stability index meets or surpasses 2.
yes

Given the entry `E2R` , answer whether its protein stability index meets or surpasses 2.
no

Given the entry `S13Y` , answer whether its protein stability index meets or surpasses 2.
no

Given the entry `D14K` , answer whether its protein stability index meets or surpasses 2.
no

Given the entry `D14G` , answer whether its protein stability index meets or surpasses 2.
no

Given the entry `P8C` , answer whether its protein stability index meets or surpasses 2.
no

Given the entry `D5C` , answer whether its protein stability index meets or surpasses 2.
yes

Given the entry `S13K` , answer whether its protein stability index meets or surpasses 2.
no

Given the entry `F21E` , answer whether its protein stability index meets or surpasses 2.
yes

Given the entry `Y6C` , answer whether its protein stability index meets or surpasses 2.
yes

Given the entry `S13N` , answer whether its protein stability index meets or surpasses 2.
yes

Given the entry `S13W` , answer whether its protein stability index meets or surpasses 2.
yes

Given the entry `D5E` , answer whether its protein stability index meets or surpasses 2.
no

Given the entry `D7Q` , answer whether its protein stability index meets or surpasses 2.
no

Given the entry `G12F` , answer whether its protein stability index meets or surpasses 2.
no

Given the entry `D9A` , answer whether its protein stability index meets or surpasses 2.
no

Given the entry `F19H` , answer whether its protein stability index meets or surpasses 2.
yes

Given the entry `Y6A` , answer whether its protein stability index meets or surpasses 2.
yes

Given the entry `D7T` , answer whether its protein stability index meets or surpasses 2.
no

Given the entry `F19G` , answer whether its protein stability index meets or surpasses 2.
yes

Given the entry `Y6W` , answer whether its protein stability index meets or surpasses 2.
yes

Given the entry `I16S` , answer whether its protein stability index meets or surpasses 2.
yes

Given the entry `Y15M` , answer whether its protein stability index meets or surpasses 2.
yes

Given the entry `N24H` , answer whether its protein stability index meets or surpasses 2.
no

Given the entry `R20H` , answer whether its protein stability index meets or surpasses 2.
yes

Given the entry `E2Y` , answer whether its protein stability index meets or surpasses 2.
yes

Given the entry `F19Y` , answer whether its protein stability index meets or surpasses 2.
yes

Given the entry `D5P` , answer whether its protein stability index meets or surpasses 2.
yes

Given the entry `Y15K` , answer whether its protein stability index meets or surpasses 2.
yes

Given the entry `P23M` , answer whether its protein stability index meets or surpasses 2.
yes

Given the entry `F19Q` , answer whether its protein stability index meets or surpasses 2.
yes

Given the entry `Y6L` , answer whether its protein stability index meets or surpasses 2.
yes

Given the entry `D5W` , answer whether its protein stability index meets or surpasses 2.
no

Given the entry `S13P` , answer whether its protein stability index meets or surpasses 2.
yes

Given the entry `D5S` , answer whether its protein stability index meets or surpasses 2.
no

Given the entry `Y6R` , answer whether its protein stability index meets or surpasses 2.
no

Given the entry `S13G` , answer whether its protein stability index meets or surpasses 2.
yes

Given the entry `D9C` , answer whether its protein stability index meets or surpasses 2.
no

Given the entry `D5I` , answer whether its protein stability index meets or surpasses 2.
no

Given the entry `D14S` , answer whether its protein stability index meets or surpasses 2.
no

Given the entry `S1T` , answer whether its protein stability index meets or surpasses 2.
yes

Given the entry `Y15F` , answer whether its protein stability index meets or surpasses 2.
yes

Given the entry `F21L` , answer whether its protein stability index meets or surpasses 2.
yes
